Assay: TK assay, intravenous mixture dosing: serum concentrations and noncompartmental analysis (sparse data)
Settings: serum, IV mixture dosing, NCA, n=12; doses in Table 2 r3; BPSG after BPS dosing
Reported Cmax values for the following compounds.
Give the quantity in µM, number only.

A selection of reference data follows.
O=C(O)[C@H]1O[C@@H](Oc2ccc(S(=O)(=O)c3ccc(O)cc3)cc2)[C@H](O)[C@@H](O)[C@@H]1O [BPSG, bisphenol S glucuronide] : 5.78
O=S(=O)(c1ccc(O)cc1)c1ccc(O)cc1 [BPS, bisphenol S] : 4.06
O=S(=O)(O)C(F)(F)C(F)(F)C(F)(F)C(F)(F)C(F)(F)C(F)(F)C(F)(F)C(F)(F)F [nPFOS] : 0.427

Measured Cmax, CCCCC(CC)COC(=O)c1ccccc1C(=O)O (stereo not shown) [MEHP, mono(2-ethylhexyl)phthalate] : 14.4

---

Test: TK assay, intravenous mixture dosing: serum concentrations and noncompartmental analysis (sparse data)
Settings: female, New Zealand white, rabbit, in vivo, iv, Serum concentration, rabbit 10, 671.96 h
parameter: concentration at 671.96 h (nM)
Give just the numeric value; nM need not be written.

Brc1ccc(Oc2ccc(Br)cc2Br)c(Br)c1 : 3.9

// next item, concentration at 671.96 h requested
The compound `Cl[C@H]1[C@H](Cl)[C@@H](Cl)[C@H](Cl)[C@@H](Cl)[C@@H]1Cl` showed concentration at 671.96 h equal to 6.5

---

# clearance listing for each entry below
Test: Nonlinear mixed effect (NLME) compartmental modeling of merged IV and oral serum concentrations
Settings: female, New Zealand white, rabbit, in vivo, Clearance, population secondary parameter, mean
Provide the reading as a plain figure in mL/min/kg.

Cl[C@H]1[C@H](Cl)[C@@H](Cl)[C@H](Cl)[C@@H](Cl)[C@@H]1Cl : 1.45

Consider now this further molecule.
Short answer for `Brc1ccc(Oc2ccc(Br)cc2Br)c(Br)c1` : clearance was 5.67

---

Each entry below lists one item and its recorded half-life value.
Assay: Nonlinear mixed effect (NLME) compartmental modeling of merged IV and oral serum concentrations
Settings: female, New Zealand white, rabbit, in vivo
Entry rule: numbers only, all in days.

Example results:
Brc1ccc(Oc2ccc(Br)cc2Br)c(Br)c1 : 6.79
O=C(O)C(F)(F)C(F)(F)C(F)(F)C(F)(F)C(F)(F)C(F)(F)C(F)(F)F : 3.83
Cl[C@H]1[C@H](Cl)[C@@H](Cl)[C@H](Cl)[C@@H](Cl)[C@@H]1Cl : 13.2

Noted for `ClC(Cl)=C(c1ccc(Cl)cc1)c1ccc(Cl)cc1` : its half-life reads 11.3

The value of half-life measured for the compound `Clc1c(Cl)c(Cl)c(Cl)c(Cl)c1Cl` turned out to be 20

---

Test: in vivo
Conditions: female, New Zealand white, rabbit, in vivo, po, Bioavailability
Protocol: A nonlinear mixed effect (NLME) modeling approach was used to analyze simultaneously all data obtained from the different rabbits after both IV and oral administrations and to provide robust estimates of the typical TK parameters. […] Secondary parameters were calculated from the population primary parameters. […]
parameter: bioavailability

Clc1c(Cl)c(Cl)c(Cl)c(Cl)c1Cl : 51%

// next entry
compound `ClC(Cl)=C(c1ccc(Cl)cc1)c1ccc(Cl)cc1` , bioavailability observed: 72%

---

Experiment: in vivo
Details: female, New Zealand white, rabbit, in vivo, po
Protocol: A nonlinear mixed effect (NLME) modeling approach was used to analyze simultaneously all data obtained from the different rabbits after both IV and oral administrations and to provide robust estimates of the typical TK parameters. […] Secondary parameters were calculated from the population primary parameters. […]
parameter: AUC (µM·h)
Please give a number only; it is taken to be in µM·h.

Sure, the documented AUC for `ClC(Cl)=C(c1ccc(Cl)cc1)c1ccc(Cl)cc1` is 77

get_value(item= `O=C(O)C(F)(F)C(F)(F)C(F)(F)C(F)(F)C(F)(F)C(F)(F)C(F)(F)F` , readout=AUC) returns 128

Per the record, `Brc1ccc(Oc2ccc(Br)cc2Br)c(Br)c1` has AUC of 71

Reported AUC for `Cl[C@H]1[C@H](Cl)[C@@H](Cl)[C@H](Cl)[C@@H](Cl)[C@@H]1Cl` was 87

Record `Clc1c(Cl)c(Cl)c(Cl)c(Cl)c1Cl` , field AUC: 271
